Values were extracted from paper PMC7993833.

Tested on: RSV-A Long
MEASUREMENT_NOTES: RT-qPCR assay, RSV-A Long in primary neonatal lamb bronchial epithelial cells
Type: cell-based
CONDITION_CONTEXT: human respiratory syncytial virus, Epithelial cell, 144 h, RSV-A Long MOI 0.1, 6 days
MEASUREMENT_KIND: EC50

Request: I'm curious: which EC50 was measured for O=C1Nc2ccccc2C(c2ccccc2)=N[C@@H]1Nc1nnc(-c2ncc(C(F)(F)F)cc2N2CCOCC2)o1 [EDP-938] tested on RSV-A Long?
Result: > 800 nM

====

Test system: RSV-B VR-955
MEASUREMENT_NOTES: RT-qPCR assay, RSV-B VR-955 in A549 cells
Format: cell-based
CONDITION_CONTEXT: human respiratory syncytial virus
MEASUREMENT_KIND: EC50 (µM)
Give the quantity in µM, number only.

Request: Which EC50 is listed for O=C1Nc2ccccc2C(c2ccccc2)=N[C@@H]1Nc1nnc(-c2ncc(C(F)(F)F)cc2N2CCOCC2)o1 [EDP-938] ?
Result: 0.083

====

Tested on: RSV-A Long
MEASUREMENT_NOTES: Time-of-addition study, CPE endpoint
Format: cell-based, respiratory syncytial virus
CONDITION_CONTEXT: human respiratory syncytial virus; compound addition at 6 h post-infection; read-out: EC50 for cytoprotection
Method: In order to help determine which step of the viral life cycle EDP-938 blocks multiple in vitro time-of-addition studies were performed. In the first study, EDP-938 was administered to cells infected with RSV-A Long at a MOI of 0.1 at 2 hours pre-infection (-2) or 2, 6, or 24 hours post-infection (hpi), and viral CPE evaluated 5 days later. […] As above, but 8,000 HEp-2 cpw seeded 1-day pre-infection. […] 5dpi cell viability calculated as described above.
MEASUREMENT_KIND: EC50 (nM)
Give the quantity in nM, number only.

Request: Which EC50 is listed for O=C1Nc2ccccc2C(c2ccccc2)=N[C@@H]1Nc1nnc(-c2ncc(C(F)(F)F)cc2N2CCOCC2)o1 [EDP-938] ?
Result: 76

====

Tested on: RSV-A Long
MEASUREMENT_NOTES: CPE assay (ATPlite), RSV-A Long in HEp-2 cells
Assay type: cell-based
CONDITION_CONTEXT: human respiratory syncytial virus, 120 h; HEp-2; RSV-A Long MOI 0.1; 5 days; CPE (ATPlite); read-out: EC50
MEASUREMENT_KIND: EC50 (nM)
Give the quantity in nM, number only.

Request: Which EC50 is listed for "O=C1Nc2ccccc2C(c2ccccc2)=N[C@@H]1Nc1nnc(-c2ncc(C(F)(F)F)cc2N2CCOCC2)o1" ?
Result: 52

====

System: RSV-B VR-955
MEASUREMENT_NOTES: CPE assay, RSV-B VR-955 in A549 cells
Type: cell-based
CONDITION_CONTEXT: human respiratory syncytial virus, 144 h, RSV-B VR-955 MOI 0.5, 6 days
MEASUREMENT_KIND: EC50
Write the numeric value and follow it with the unit.

Request: Which EC50 is listed for O=C1Nc2ccccc2C(c2ccccc2)=N[C@@H]1Nc1nnc(-c2ncc(C(F)(F)F)cc2N2CCOCC2)o1 [EDP-938] ?
Result: 72 nM

====

System: recombinant RSV A2-line19F, N protein mutants
MEASUREMENT_NOTES: microbe, parasite or virus in culture
CONDITION_CONTEXT: human respiratory syncytial virus, HEp-2, recombinant RSV N M109T
What pEC50 was measured for each of the following?
In plain terms, pEC50 is the concentration in mol/L turned into minus its base-10 logarithm.

Request: Which pEC50 is listed for "Cc1cn2nc([C@@H]3CCCCN3C(=O)c3cc(Cl)ccc3NS(C)(=O)=O)cc2nc1N1CC[C@H](N)C1" ?
Result: 9.68

Request: Which pEC50 is listed for "O=C(Nc1ccccc1F)N[C@H]1N=C(c2ccccc2)c2ccccc2NC1=O" ?
Result: 5.73

Request: Which pEC50 is listed for "O=C1Nc2ccccc2C(c2ccccc2)=N[C@@H]1Nc1nnc(-c2ncc(C(F)(F)F)cc2N2CCOCC2)o1" ?
Result: 6.61

====

Tested on: RSV-A M37
MEASUREMENT_NOTES: CPE assay, RSV-A M37 in HEp-2 cells
Assay type: cell-based
CONDITION_CONTEXT: human respiratory syncytial virus
Procedure: HEp-2, Vero, and BHK were seeded at 8,000 cells per well (cpw) in growth medium (Dulbecco’s Modified Eagle Medium (DMEM) with 1% GlutaMAX, 1% Penicillin/Streptomycin (P/S), 1% Non-Essential Amino Acids (NEAA), 10% Fetal Bovine Serum (FBS)) or (Minimum Essential Medium (MEM) with 10% FBS, 1% NEAA, 1% P/S) or (Eagle’s Minimum Essential Medium with L-Glutamine, with 10% FBS, 1% P/S) respectively. […] Cytopathic effect (CPE) determined using ATPlite (Perkin Elmer) measured with Envision luminometer. […]
MEASUREMENT_KIND: EC50
Write the numeric value and follow it with the unit.

Request: Which EC50 is listed for "O=C1Nc2ccccc2C(c2ccccc2)=N[C@@H]1Nc1nnc(-c2ncc(C(F)(F)F)cc2N2CCOCC2)o1" ?
Result: 28 nM

====

System: recombinant RSV A2-line19F, N protein mutants
MEASUREMENT_NOTES: microbe, parasite or virus in culture
CONDITION_CONTEXT: human respiratory syncytial virus, HEp-2, recombinant RSV Wild-type (WT); HEp2
MEASUREMENT_KIND: pEC50
In plain terms, pEC50 is the concentration in mol/L turned into minus its base-10 logarithm.

Request: Which pEC50 is listed for "Cc1cn2nc([C@@H]3CCCCN3C(=O)c3cc(Cl)ccc3NS(C)(=O)=O)cc2nc1N1CC[C@H](N)C1" ?
Result: 9.89

Request: Which pEC50 is listed for "O=C1Nc2ccccc2C(c2ccccc2)=N[C@@H]1Nc1nnc(-c2ncc(C(F)(F)F)cc2N2CCOCC2)o1" ?
Result: 7.35

Request: Which pEC50 is listed for "O=C(Nc1ccccc1F)N[C@H]1N=C(c2ccccc2)c2ccccc2NC1=O" ?
Result: 5.94

====

Tested on: recombinant RSV A2-line19F, N protein mutants
MEASUREMENT_NOTES: microbe, parasite or virus in culture
CONDITION_CONTEXT: human respiratory syncytial virus, HEp-2, recombinant RSV N V90A
MEASUREMENT_KIND: EC50
Write the numeric value and follow it with the unit.

Request: Which EC50 is listed for O=C(Nc1ccccc1F)N[C@H]1N=C(c2ccccc2)c2ccccc2NC1=O [RSV-604] ?
Result: 1420 nM

Request: Which EC50 is listed for O=C1Nc2ccccc2C(c2ccccc2)=N[C@@H]1Nc1nnc(-c2ncc(C(F)(F)F)cc2N2CCOCC2)o1 [EDP-938] ?
Result: 46 nM

Request: Which EC50 is listed for Cc1cn2nc([C@@H]3CCCCN3C(=O)c3cc(Cl)ccc3NS(C)(=O)=O)cc2nc1N1CC[C@H](N)C1 [GS-5806] ?
Result: 0.13 nM

====

MEASUREMENT_NOTES: Plasma drug exposure in African Green monkey study
Format: in vivo, African Green monkeys (Chlorocebus)
CONDITION_CONTEXT: both sexes, plasma, 100 mg/kg BID oral, read-out: mean plasma Ctrough
MEASUREMENT_KIND: concentration at 12 h after the last dose (nM)
Give the quantity in nM, number only.

Request: Which concentration at 12 h after the last dose is listed for "O=C1Nc2ccccc2C(c2ccccc2)=N[C@@H]1Nc1nnc(-c2ncc(C(F)(F)F)cc2N2CCOCC2)o1" ?
Result: 1480

====

System: RSV-A Long
MEASUREMENT_NOTES: CPE assay (ATPlite), RSV-A Long in HEp-2 cells
Type: cell-based
CONDITION_CONTEXT: human respiratory syncytial virus, HEp-2, 120 h
MEASUREMENT_KIND: EC50 (nM)
Give the quantity in nM, number only.

Request: Which EC50 is listed for "O=C(Nc1ccccc1F)N[C@H]1N=C(c2ccccc2)c2ccccc2NC1=O" ?
Result: 1430

====

Tested on: RSV-A2
MEASUREMENT_NOTES: RT-qPCR assay, RSV-A2 in HEp-2 cells
Format: cell-based
CONDITION_CONTEXT: human respiratory syncytial virus
MEASUREMENT_KIND: EC50 (nM)
Give the quantity in nM, number only.

Request: Which EC50 is listed for "O=C1Nc2ccccc2C(c2ccccc2)=N[C@@H]1Nc1nnc(-c2ncc(C(F)(F)F)cc2N2CCOCC2)o1" ?
Result: 59

====

Test system: RSV-A Long
MEASUREMENT_NOTES: RT-qPCR assay, RSV-A Long in BHK cells
Assay type: cell-based
CONDITION_CONTEXT: human respiratory syncytial virus
MEASUREMENT_KIND: pEC50
In plain terms, pEC50 is the concentration in mol/L turned into minus its base-10 logarithm.

Request: Which pEC50 is listed for "O=C1Nc2ccccc2C(c2ccccc2)=N[C@@H]1Nc1nnc(-c2ncc(C(F)(F)F)cc2N2CCOCC2)o1" ?
Result: 4.77
